target or system: rat lens aldose reductase (RLAR) (Rattus norvegicus, UniProt P07943)
Construct: from tissue; host or cells: rat lens (Sprague-Dawley) homogenate, partially purified
protocol text: Rat lens aldose reductase (RLAR) inhibitory assay, DL-glyceraldehyde as substrate
Format: biochemical
condition summary: least-squares regression of log concentration vs inhibitory activity; read-out: IC50 (μg/mL) RLAR (converted)
Recorded IC50, one value per entry.
observed property: IC50

molecule | observed
O=C(O)CC(=O)OC[C@H]1O[C@@H](Oc2cc3c(O)cc(O)cc3[o+]c2-c2ccc(O)cc2)[C@H](O)[C@@H](O)[C@@H]1O [pelargonidin 3-(6′′-malonylglucoside)] | > 19.3 µM
OC[C@H]1O[C@@H](Oc2cc3c(O)cc(O)cc3[o+]c2-c2ccc(O)cc2)[C@H](O)[C@@H](O)[C@@H]1O [Pelargonidin-3-glucoside (9), pelargonidin-3-glucoside] | > 92.3 µM
OC[C@H]1O[C@@H](Oc2cc3c(O)cc(O)cc3[o+]c2-c2ccc(O)c(O)c2)[C@H](O)[C@@H](O)[C@@H]1O [Cyanidin-3-glucoside (8), cyanidin-3-glucoside] | > 89 µM
COc1cc(-c2[o+]c3cc(O)cc(O)c3cc2O[C@@H]2O[C@H](CO)[C@@H](O)[C@H](O)[C@H]2O)ccc1O [Peonidin-3-glucoside (10), peonidin-3-glucoside] | > 86.3 µM
COc1cc(C(=O)O)ccc1O [Vanillic acid (2), vanillic acid] | > 59.5 µM
O=C(O)c1ccc(O)c(O)c1 [Protochatechuic acid (1), protocatechuic acid] | > 64.9 µM
